Data provenance: ChEMBL document CHEMBL4725261

- experimental system: Beta-galactoside alpha-2,6-sialyltransferase 1 (Homo sapiens)
- Sequence (P15907 whole entry): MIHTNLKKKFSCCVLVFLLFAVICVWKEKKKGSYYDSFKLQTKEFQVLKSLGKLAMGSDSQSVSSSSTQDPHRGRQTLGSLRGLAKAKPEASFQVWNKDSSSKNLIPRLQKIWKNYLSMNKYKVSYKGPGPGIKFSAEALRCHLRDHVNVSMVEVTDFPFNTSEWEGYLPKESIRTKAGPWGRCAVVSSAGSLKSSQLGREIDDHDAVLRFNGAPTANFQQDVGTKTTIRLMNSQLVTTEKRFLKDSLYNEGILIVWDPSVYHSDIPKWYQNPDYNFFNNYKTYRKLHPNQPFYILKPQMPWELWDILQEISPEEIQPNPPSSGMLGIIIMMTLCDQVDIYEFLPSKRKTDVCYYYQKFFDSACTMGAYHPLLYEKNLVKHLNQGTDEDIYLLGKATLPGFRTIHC
- protocol summary: Inhibition of recombinant human N-terminal 6His-tagged ST6Gal-1 (Glu44 to Cys406 residues)
metric name: pKi
A value of pKi is the negative decimal logarithm of a concentration given in moles per litre.

O=C(NC[C@H]1O[C@@H](n2ccc(=O)[nH]c2=O)[C@H](O)[C@@H]1O)OC(c1ccc(F)cc1)P(=O)([O-])[O-].[Na+].[Na+] (stereo in doubt; 28c-(s)) :: 3.51
O=C(NC[C@H]1O[C@@H](n2ccc(=O)[nH]c2=O)[C@H](O)[C@@H]1O)OC(c1ccc(OC2CCCC2)cc1)P(=O)(O)O (stereo in doubt; 28i-(l)) :: 4.94
O=C(NC[C@H]1O[C@@H](n2ccc(=O)[nH]c2=O)[C@H](O)[C@@H]1O)OC(c1ccc(F)cc1)P(=O)(O)O (stereo in doubt; 28c-(l)) :: 5.96
CCCOc1cccc(C(OC(=O)NC[C@H]2O[C@@H](n3ccc(=O)[nH]c3=O)[C@H](O)[C@@H]2O)P(=O)(O)O)c1 (stereo in doubt; 28e-(l)) :: 4.69

Input: Lab note: need pKi with Beta-galactoside alpha-2,6-sialyltransferase 1 (Homo sapiens) for entry O=C(NC[C@H]1O[C@@H](n2ccc(=O)[nH]c2=O)[C@H](O)[C@@H]1O)OC(c1cc2ccccc2s1)P(=O)([O-])[O-].[Na+].[Na+] (stereo in doubt; 28k-(s)) , please look it up.
Output: 5.07

Input: Request - read-out pKi | tested on Beta-galactoside alpha-2,6-sialyltransferase 1 (Homo sapiens) | compound O=C(NC[C@H]1O[C@@H](n2ccc(=O)[nH]c2=O)[C@H](O)[C@@H]1O)OC(c1ccc(OC2CCCC2)cc1)P(=O)([O-])[O-].[Na+].[Na+] (stereo in doubt; 28i-(s))
Output: 4.26

Input: Lab note: need pKi for O=C(NC[C@H]1O[C@@H](n2ccc(=O)[nH]c2=O)[C@H](O)[C@@H]1O)OC(c1cccc(F)c1)P(=O)([O-])[O-].[Na+].[Na+] (stereo in doubt; 28d-(s)) on Beta-galactoside alpha-2,6-sialyltransferase 1 (Homo sapiens), anyone have it?
Output: 4.72

###

- experimental system: Beta-galactoside alpha-2,6-sialyltransferase 1 (Rattus norvegicus)
- Sequence (P13721 whole entry): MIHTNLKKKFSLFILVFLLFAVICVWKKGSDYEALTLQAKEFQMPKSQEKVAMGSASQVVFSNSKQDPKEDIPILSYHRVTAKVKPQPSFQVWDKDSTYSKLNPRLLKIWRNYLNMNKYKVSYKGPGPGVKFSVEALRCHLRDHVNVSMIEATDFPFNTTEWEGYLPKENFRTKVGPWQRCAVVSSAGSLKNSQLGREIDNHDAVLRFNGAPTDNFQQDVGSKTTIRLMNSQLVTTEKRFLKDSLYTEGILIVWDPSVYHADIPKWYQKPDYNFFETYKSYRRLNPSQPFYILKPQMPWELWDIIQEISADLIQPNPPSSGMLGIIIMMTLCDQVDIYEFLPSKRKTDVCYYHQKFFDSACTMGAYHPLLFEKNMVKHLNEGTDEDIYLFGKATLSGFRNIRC
- protocol summary: Inhibition of rat liver ST6Gal-1 using […] measured up to 20 mins by HPLC analysis
metric name: Ki (nM)
Hi! Could you send only the number? It should be in nM, unit omitted.

Input: Ki lookup needed for Nc1ccn([C@@H]2O[C@H](COP(=O)(O)O[C@@H](c3cccc(Oc4ccccc4)c3)P(=O)(O)O)[C@@H](O)[C@H]2O)c(=O)n1 , thanks.
Output: 70
